Biological target: Intestinal-type alkaline phosphatase (Homo sapiens)
Sequence (P09923 whole entry): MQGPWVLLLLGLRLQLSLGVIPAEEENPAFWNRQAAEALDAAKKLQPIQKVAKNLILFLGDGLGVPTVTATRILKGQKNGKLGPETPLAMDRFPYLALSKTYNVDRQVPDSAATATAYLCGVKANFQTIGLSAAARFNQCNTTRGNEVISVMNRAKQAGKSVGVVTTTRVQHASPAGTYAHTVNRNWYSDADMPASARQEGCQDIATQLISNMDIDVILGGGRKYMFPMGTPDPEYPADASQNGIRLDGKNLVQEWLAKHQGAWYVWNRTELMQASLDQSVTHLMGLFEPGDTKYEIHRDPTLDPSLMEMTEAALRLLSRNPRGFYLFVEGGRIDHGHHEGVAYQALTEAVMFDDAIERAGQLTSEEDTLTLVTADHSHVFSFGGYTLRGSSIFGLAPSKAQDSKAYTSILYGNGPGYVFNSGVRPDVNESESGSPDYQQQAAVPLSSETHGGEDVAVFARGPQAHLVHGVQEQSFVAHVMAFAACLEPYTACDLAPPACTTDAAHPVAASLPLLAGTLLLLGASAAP
Assay: activation of human intestinal alkaline phosphatase – biochemical, luminescent, uHTS hits, set 2, dose response (AID 488817);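 note: potency of activators that raise enzyme activity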
Format: functional
Activity calls are given as the source filed them.
Entries and their measured EC50 follow.
value.type: EC50

substance.smiles: O=C(N/N=C/c1ccc(O)cc1O)C(=O)N/N=C/c1ccc(O)cc1O
system.tested: Intestinal-type alkaline phosphatase (Homo sapiens)
obs.value: 4.56 µM (active)
--
substance.smiles: O=C(NC(=S)NNC(=O)c1ccccc1O)c1ccc(F)cc1
system.tested: Intestinal-type alkaline phosphatase (Homo sapiens)
obs.value: 12.2 µM (active)
--
substance.smiles: O=C(N/N=C/c1c(F)cccc1Cl)c1cc(C2CC2)[nH]n1
system.tested: Intestinal-type alkaline phosphatase (Homo sapiens)
obs.value: 40.6 µM (active)
--
substance.smiles: COc1ccccc1N(C)S(=O)(=O)c1ccc(Cl)c(C(=O)NNC(=O)c2ccccc2O)c1
system.tested: Intestinal-type alkaline phosphatase (Homo sapiens)
obs.value: 15.7 µM (active)

====

Assay: alpha-synuclein stem-loop luciferase translation blockers – H4 neuroglioma cells, luminescence, confirmation (AID 1988)
Format: functional, cell-based
Activity calls are given as the source filed them.

substance.smiles: O=C1C(N2CCOCC2)=C(n2nnc3ccccc32)C(=O)c2ccccc21
EC50: > 120 µM (not active)

substance.smiles: Cn1c(C(=O)NCCOc2ccccc2Cl)cc(=O)n(C)c1=O
EC50: > 120 µM (not active)

substance.smiles: OCc1ccc(O)c2ncccc12
EC50: 1.2 µM (active)

substance.smiles: COC(=O)c1[nH]c2ccc(C)cc2c1NC(=O)C1=COCCO1
EC50: > 120 µM (not active)

substance.smiles: Cc1cc(C)cc(NC(=O)CSc2ccc(-c3ccccn3)nn2)c1
EC50: 8.69 µM (active)

substance.smiles: Cc1ccc2nc(-c3ccc(NC(=O)CCS(=O)(=O)c4ccccc4)cc3)sc2c1
EC50: 6.26 µM (active)

substance.smiles: Oc1ccc(CN2CCc3ccccc3C2)c2cccnc12
EC50: 0.528 µM (active)

====

The next entries give measured IC50 for Glyceraldehyde-3-phosphate dehydrogenase (Homo sapiens, UniProt P04406).
Active and inactive are the calls of the source.

molecule: O=C1C(Cl)=C(Cl)C(=O)N1c1cccc([N+](=O)[O-])c1
IC50: > 100 µM (not active)
--
molecule: O=C1C(Cl)=C(N2CCN(CCNCc3ccccn3)CC2)C(=O)N1c1ccc(Cl)c(Cl)c1
IC50: > 100 µM (not active)
--
molecule: COc1ccc(-c2cc(-c3ccc4ccccc4c3O)n[nH]2)cc1
IC50: > 100 µM (not active)
--
molecule: NS(=O)(=O)c1ccc2c(c1)C1C=CCC1C(C(=O)O)N2 (stereo not drawn)
IC50: 62.2 µM (active)
--
molecule: CN1CCN(C2=C(Cl)C(=O)N(c3c(Cl)cccc3Cl)C2=O)CC1
IC50: > 100 µM (not active)
--
molecule: COC(=O)c1cc(-c2ccc(Cl)c(Cl)c2Cl)n[nH]1
IC50: > 10 µM (inconclusive)
--
molecule: O=C1C(Cl)=C(N2CCN(CCOCCO)CC2)C(=O)N1c1ccc(Cl)c(Cl)c1
IC50: > 100 µM (not active)
--
molecule: CC(C)COC(=O)c1ccc2c(c1)C1C=CCC1C(C(=O)O)N2 (stereo not drawn)
IC50: 87.3 µM (active)

====

Below, each of the compounds is paired with its reported IC50 value.
Target: Calpain-2 catalytic subunit (Sus scrofa)
Sequence (P43367 whole entry): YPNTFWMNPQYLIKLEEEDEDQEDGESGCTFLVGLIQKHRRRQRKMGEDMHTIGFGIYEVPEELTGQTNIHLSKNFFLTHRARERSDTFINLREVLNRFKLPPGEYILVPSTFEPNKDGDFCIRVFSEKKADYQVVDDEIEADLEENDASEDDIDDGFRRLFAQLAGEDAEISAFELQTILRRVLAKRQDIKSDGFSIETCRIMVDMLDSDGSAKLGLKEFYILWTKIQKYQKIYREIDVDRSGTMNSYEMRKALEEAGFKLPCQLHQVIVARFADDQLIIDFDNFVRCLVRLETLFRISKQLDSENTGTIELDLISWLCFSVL
Assay: m-calpain protease blockers, concentration series – biochemical, fluorogenic peptide substrate, dose response (AID 1420)
Assay type: functional
The source made the active and inactive calls.

compound: N#Cc1c(NC(=O)c2cccc(S(=O)(=O)Nc3ccc(C(=O)O)cc3)c2)sc2c1CCCC2
system.tested: Calpain-2 catalytic subunit (Sus scrofa)
IC50: 13.7 µM (not active)
//
compound: O=C(Nc1ccc(Cl)c(Cl)c1)Nc1nnc(-c2ccncc2)s1
system.tested: Calpain-2 catalytic subunit (Sus scrofa)
IC50: 3.64 µM (active)
//
compound: CCCC(=O)n1nc(NCc2ccc(OC)cc2)nc1NCc1ccc(OC)cc1
system.tested: Calpain-2 catalytic subunit (Sus scrofa)
IC50: < 0.4 µM (not active)
//
compound: Cc1cccc(NC(=O)NCc2ccc3[nH]c(C)cc3c2)c1
system.tested: Calpain-2 catalytic subunit (Sus scrofa)
IC50: 7.26 µM (not active)
//
compound: CC1CC1C(=O)OCC(=O)Nc1ccccc1Oc1ccccc1 (stereo unspecified)
system.tested: Calpain-2 catalytic subunit (Sus scrofa)
IC50: 33.3 µM (not active)
//
compound: CC1CCN(c2nc3ccccc3n2CC(=O)c2ccccc2)CC1
system.tested: Calpain-2 catalytic subunit (Sus scrofa)
IC50: > 50 µM (not active)

====

Listed compounds paired with reported EC50
Molecular target: Heat shock factor protein 1 (Mus musculus, UniProt P38532)
Sequence (P38532 whole entry): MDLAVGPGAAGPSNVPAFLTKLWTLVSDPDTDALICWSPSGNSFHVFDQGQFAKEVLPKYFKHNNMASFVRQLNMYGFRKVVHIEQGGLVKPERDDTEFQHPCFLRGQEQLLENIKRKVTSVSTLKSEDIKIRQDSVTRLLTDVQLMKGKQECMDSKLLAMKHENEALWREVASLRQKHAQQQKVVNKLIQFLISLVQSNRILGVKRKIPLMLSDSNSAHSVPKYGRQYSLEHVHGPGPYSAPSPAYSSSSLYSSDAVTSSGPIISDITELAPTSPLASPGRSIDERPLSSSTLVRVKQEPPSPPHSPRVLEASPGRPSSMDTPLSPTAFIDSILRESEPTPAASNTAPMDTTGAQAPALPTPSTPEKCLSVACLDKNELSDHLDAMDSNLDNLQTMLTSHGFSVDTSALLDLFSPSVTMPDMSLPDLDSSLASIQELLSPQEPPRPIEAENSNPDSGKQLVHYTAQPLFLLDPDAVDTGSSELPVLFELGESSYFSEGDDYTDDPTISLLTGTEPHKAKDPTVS
Experiment: enhancement of HSF1-driven luciferase signal – cell-based, NIH3T3, luminescence, dose retest, confirmation (AID 435004);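 note: stress induced by proteasome inhibitor MG132 added 30 min after compound; luciferase reporter driven by HSF1 response element in NIH3T3 cells; actives raise luminescence as potentiators of the MG132 stress response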
Type: functional
The source made the active and inactive calls.

compound: O=C(CSc1nnc(-c2c[nH]c3ccccc23)o1)c1ccccc1
EC50: > 260 µM (inactive)

compound: CCn1c(SCC(=O)N2CCOCC2)nc2oc3c(Cl)cc(Cl)cc3c(=O)c2c1=O
EC50: 16.1 µM (inconclusive)

compound: CCOC(=O)c1c(NC(=S)N2CCCCC2)sc2c1CCN(C(=O)OCC)C2
EC50: 12.3 µM (active)

compound: COC(=O)[C@@H](NC(=O)NC1CCCc2ccccc21)C(C)C (some centres undefined)
EC50: > 260 µM (inactive)

====

Reported IC50 values for a set of molecules
Biological target: Protein Tat (Human immunodeficiency virus type 1 group M subtype B (isolate HXB2)(HIV-1));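 note: tat binding to TAR RNA read out by fluorescence polarization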
Sequence (P04608 whole entry): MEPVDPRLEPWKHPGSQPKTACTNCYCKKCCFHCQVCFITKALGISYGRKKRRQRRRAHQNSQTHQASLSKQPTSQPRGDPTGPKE
Type: functional
Calls of active or inactive are those of the source.

molecule: CC(C)(C)NC(=O)/C(=C/c1ccco1)c1ccccc1
IC50: > 100 µM (inconclusive)
--
molecule: CCCn1c(CNc2ccccc2O)nc2ccccc21
IC50: > 100 µM (active)
--
molecule: CCOC(=O)N1CCC(NC(=O)c2ccc(OC)c(CN3CC(=O)N4CCCC4C3=O)c2)CC1 (stereo not given)
IC50: > 100 µM (inconclusive)
--
molecule: Cc1cccc(C)c1NC(=O)CCS(=O)(=O)c1cccc2nsnc12
IC50: > 100 µM (active)
--
molecule: COc1cc(CN(C(=O)c2ccco2)c2ccc(C)cc2)ccc1O
IC50: 9.05 µM (inconclusive)

====

Target: Sentrin-specific protease 6 (Homo sapiens);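 note: Luminescence-based dose-response confirmatory assay of SENP6 inhibition, following up an ultra-high-throughput screen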
Sequence (Q9GZR1 whole entry): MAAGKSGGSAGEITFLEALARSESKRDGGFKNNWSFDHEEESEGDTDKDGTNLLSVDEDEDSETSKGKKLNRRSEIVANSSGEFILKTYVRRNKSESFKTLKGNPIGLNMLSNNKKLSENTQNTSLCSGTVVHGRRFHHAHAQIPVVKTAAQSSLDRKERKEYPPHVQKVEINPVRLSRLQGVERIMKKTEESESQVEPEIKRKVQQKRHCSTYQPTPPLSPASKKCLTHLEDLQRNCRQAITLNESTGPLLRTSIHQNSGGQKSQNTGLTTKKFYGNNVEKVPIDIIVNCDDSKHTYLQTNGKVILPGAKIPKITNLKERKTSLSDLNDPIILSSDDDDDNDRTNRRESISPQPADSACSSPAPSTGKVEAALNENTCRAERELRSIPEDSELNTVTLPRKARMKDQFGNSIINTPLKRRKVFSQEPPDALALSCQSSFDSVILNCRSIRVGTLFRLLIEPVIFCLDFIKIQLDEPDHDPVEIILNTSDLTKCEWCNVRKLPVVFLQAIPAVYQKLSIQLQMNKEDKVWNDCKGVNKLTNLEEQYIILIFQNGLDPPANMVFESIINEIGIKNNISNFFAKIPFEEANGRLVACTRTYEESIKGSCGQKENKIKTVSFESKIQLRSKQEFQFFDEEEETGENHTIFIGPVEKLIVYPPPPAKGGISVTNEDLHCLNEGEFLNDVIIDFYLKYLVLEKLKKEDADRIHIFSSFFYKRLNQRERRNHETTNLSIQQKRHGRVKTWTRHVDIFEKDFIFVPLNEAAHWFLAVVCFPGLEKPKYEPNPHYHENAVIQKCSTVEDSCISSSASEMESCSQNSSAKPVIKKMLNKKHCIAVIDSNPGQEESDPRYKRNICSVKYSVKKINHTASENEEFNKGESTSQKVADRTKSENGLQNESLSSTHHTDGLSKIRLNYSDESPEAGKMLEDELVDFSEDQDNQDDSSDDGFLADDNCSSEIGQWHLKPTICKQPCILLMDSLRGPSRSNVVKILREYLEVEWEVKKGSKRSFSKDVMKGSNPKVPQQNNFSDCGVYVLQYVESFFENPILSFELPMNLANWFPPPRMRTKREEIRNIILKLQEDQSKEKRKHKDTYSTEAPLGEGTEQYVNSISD
Type: functional
Calls of active or inactive are those of the source.
Measured IC50, listed per entry.

substance.smiles: CN(C(=O)c1ccccc1)c1nc2ccccc2s1
IC50: 21.1 µM (active)

substance.smiles: CC(=O)N1C(=O)/C(=C2\SC(=S)N(NC(=O)c3ccc(O)cc3)C2=O)c2ccccc21
IC50: 3.1 µM (active)

substance.smiles: Cc1cc(N2CCCCC2)n2ncc(-c3ccccc3)c2n1
IC50: 13.8 µM (active)

substance.smiles: CCc1ccc2oc(-c3ccc(NC(C)=O)cc3)nc2c1
IC50: 8.05 µM (active)

substance.smiles: Cc1cccc(-c2cc3nc(-c4ccccc4)cc(O)n3n2)c1
IC50: 3.88 µM (active)

substance.smiles: Cn1c(=O)c2ncn(CC(=O)Nc3cccc(-c4nc5ccccc5s4)c3)c2n(C)c1=O
IC50: 23.4 µM (active)

====

Assay: viability of PTEN-deleted HCT116 cells – cell-based, HCT116 PTEN knockout, dose response (AID 1047);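 note: HCT116 colon tumor cells with PTEN knocked out; cells exposed to compound for 60 hours before readout; potency for loss of cell viability measured by luminescence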
Assay type: functional
Calls of active or inactive are those of the source.
Consider the following molecules and their measured EC50 readings.

molecule: CO/N=C/c1ccc(N2CCN(C(=O)c3ccc(Cl)cc3Cl)CC2)c([N+](=O)[O-])c1
EC50: 20.3 µM (active)
--
molecule: O=[N+]([O-])c1cccc(/C=N/Nc2nc(C(Cl)(Cl)Cl)nc3ccccc23)c1
EC50: 24.4 µM (active)
--
molecule: CCc1[nH]nc2c1/C(=N\O)CC(c1ccccc1)C2 (centres undefined)
EC50: 61.3 µM (active)
--
molecule: CCOc1ccc(C(=O)/C=C/Nc2ccc(S(=O)(=O)N=C(N)N)cc2)cc1
EC50: 16.3 µM (active)
